Each item that follows carries a reported pIC50.
# target under test: SOS1-KRas (G12C) (Homo sapiens (Human))
# Sequence (Q07889 564-1049, stated change not applied): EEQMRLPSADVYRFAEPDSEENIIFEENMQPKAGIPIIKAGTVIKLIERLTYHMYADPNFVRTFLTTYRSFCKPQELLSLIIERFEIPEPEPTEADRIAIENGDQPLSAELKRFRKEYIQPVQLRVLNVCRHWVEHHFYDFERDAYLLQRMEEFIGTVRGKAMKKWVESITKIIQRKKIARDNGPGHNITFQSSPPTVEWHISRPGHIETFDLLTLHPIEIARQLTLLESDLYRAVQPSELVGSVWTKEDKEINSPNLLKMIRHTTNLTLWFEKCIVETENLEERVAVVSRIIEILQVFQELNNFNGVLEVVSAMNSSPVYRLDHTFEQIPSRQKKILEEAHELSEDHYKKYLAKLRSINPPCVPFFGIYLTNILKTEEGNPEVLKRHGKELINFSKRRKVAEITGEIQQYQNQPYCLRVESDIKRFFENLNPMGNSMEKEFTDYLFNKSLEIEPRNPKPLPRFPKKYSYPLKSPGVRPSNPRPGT
# protocol details: SOS1-KRas (G12C) FRET Assay
# Format: binding
# recorded conditions: inhibition of SOS1:KRAS interaction; 0.5 nM His10-SOS1 (res. 564-1049), 2.5 nM GST-KRAS (res. 1-169, G12C); 2 hrs at RT
pIC50: −log10 of the molar value.
assay readout: pIC50

smi=C[C@@H](NC(=O)c1cc(N2CCOCC2)c(C(F)F)cc1NC1CCN(C)CC1)c1cccc(C(F)F)c1F assay_readout=pIC50 recorded_number=7.41
smi=C[C@@H](NC(=O)c1cc(N2C3CCCC2COC3)c(F)cc1NC1CCN(C)CC1)c1cccc(C(F)F)c1F assay_readout=pIC50 recorded_number=6.96
smi=C[C@@H](NC(=O)c1cc(-c2ccn(C)c(=O)c2)c(F)cc1NC1CCN(C)CC1)c1cccc(C(F)F)c1F assay_readout=pIC50 recorded_number=7.96
smi=COC(=O)c1ccc(NC2CCN(C)CC2)c(C(=O)N[C@H](C)c2cccc(C(F)F)c2F)c1 assay_readout=pIC50 recorded_number=6.64
